- Test system: streptococcus pneumoniae57
- test.summary: MIC against the infecting test organism
- Format: cell-based, streptococcus pneumoniae
- recorded.conditions: read-out: MIC
# MIC per record follows

Solved cases (2 shown):
compound="CC[C@H]1OC(=O)[C@H](C)[C@@H](O[C@H]2C[C@@](C)(OC)[C@@H](O)[C@H](C)O2)[C@H](C)[C@@H](O[C@@H]2O[C@H](C)C[C@H](N(C)C)[C@H]2O)[C@](C)(O)C[C@@H](C)C(=O)[C@H](C)[C@@H](O)[C@]1(C)O [erythrocin, reference compound]" recorded_measurement="0.25 mg/L"
compound="COC1C(O)CC(=O)OC(C)C/C=C/C=C/C(OC2CCC(N(C)C)C(C)O2)C(C)CC(CC=O)C1OC1OC(C)C(OC2CC(C)(O)C(OC(=O)CC(C)C)C(C)O2)C(N(C)C)C1O (stereo not drawn)" recorded_measurement="0.06 mg/L"

Input CCC(=O)OC1CC(=O)OC(C)C/C=C/C=C/C(OC2CCC(N(C)C)C(C)O2)C(C)CC(CC=O)C(OC2OC(C)C(OC3CC(C)(O)C(OC(=O)CC(C)C)C(C)O3)C(N(C)C)C2O)C1OC (stereo not drawn) . Output MIC: 0.06 mg/L

###

- Test system: enterococcus (106)
- test.summary: Clinical isolates, agar double dilution method
- Format: cell-based
- recorded.conditions: 106 clinical isolates of enterococcus; read-out: MIC90
observed.property: MIC90 (µg/mL)
Field format: number, assumed µg/mL, no unit text.

What the record says about COC1C(O)CC(=O)OC(C)C/C=C/C=C/C(OC2CCC(N(C)C)C(C)O2)C(C)CC(CC=O)C1OC1OC(C)C(OC2CC(C)(O)C(OC(=O)CC(C)C)C(C)O2)C(N(C)C)C1O (centres unmarked) : MIC90 is 32

###

- Test system: S. epidermidis (115)
- test.summary: Clinical isolates, agar double dilution method
- Assay type: cell-based
- recorded.conditions: Staphylococcus epidermidis; 115 clinical isolates of S. epidermidis; read-out: MIC90
Overview of recorded MIC90 for various molecules
// return numeric value only (unit: µg/mL, not printed)

molecule="CCC(=O)OC1CC(=O)OC(C)C/C=C/C=C/C(OC2CCC(N(C)C)C(C)O2)C(C)CC(CC=O)C(OC2OC(C)C(OC3CC(C)(O)C(OC(=O)CC(C)C)C(C)O3)C(N(C)C)C2O)C1OC (centres unmarked) [Levoisovalerylspiramycin III, levoisovalerylspiramycin III]" target_under_test="S. epidermidis (115)" recorded_measurement=32
molecule="COC1C(O)CC(=O)OC(C)C/C=C/C=C/C(OC2CCC(N(C)C)C(C)O2)C(C)CC(CC=O)C1OC1OC(C)C(OC2CC(C)(O)C(OC(=O)CC(C)C)C(C)O2)C(N(C)C)C1O (centres unmarked) [Levoisovalerylspiramycin I, levoisovalerylspiramycin I]" target_under_test="S. epidermidis (115)" recorded_measurement=32

Lookup result for COC1C(OC(C)=O)CC(=O)OC(C)C/C=C/C=C/C(OC2CCC(N(C)C)C(C)O2)C(C)CC(CC=O)C1OC1OC(C)C(OC2CC(C)(O)C(OC(=O)CC(C)C)C(C)O2)C(N(C)C)C1O (centres unmarked) [Levoisovalerylspiramycin II, levoisovalerylspiramycin II] ; measured MIC90: 64

###

- Tested on: pyogenic streptococcus 772
- test.summary: Curative effect on mouse with abdominal infection (ED50)
- Assay type: in vivo
- recorded.conditions: Streptococcus, 772, 168 h, pyogenic streptococcus 772, challenging dose 6.9 × 10^3 CFU/0.5 ml, deaths in 7 days, Bliss, read-out: ED50
# ED50 per entry
A bare number is not enough; add the unit after it.

Below, each entry is followed by its recorded ED50 result.
molecule="CC[C@H]1OC(=O)[C@H](C)[C@@H](O[C@H]2C[C@@](C)(OC)[C@@H](O)[C@H](C)O2)[C@H](C)[C@@H](O[C@@H]2O[C@H](C)C[C@H](N(C)C)[C@H]2O)[C@](C)(O)C[C@@H](C)C(=O)[C@H](C)[C@@H](O)[C@]1(C)O [erythrocin, reference compound]" target_under_test="pyogenic streptococcus 772" recorded_measurement="101 mg/kg"
molecule="CCC(=O)OC1CC(=O)OC(C)C/C=C/C=C/C(OC2CCC(N(C)C)C(C)O2)C(C)CC(CC=O)C(OC2OC(C)C(OC3CC(C)(O)C(OC(=O)CC(C)C)C(C)O3)C(N(C)C)C2O)C1OC (centres unmarked)" target_under_test="pyogenic streptococcus 772" recorded_measurement="24.6 mg/kg"

For CC[C@H]1OC(=O)[C@H](C)[C@@H](O[C@H]2C[C@@](C)(OC)[C@@H](O)[C@H](C)O2)[C@H](C)[C@@H](O[C@@H]2O[C@H](C)C[C@H](N(C)C)[C@H]2O)[C@](C)(O)C[C@@H](C)CN(C)[C@H](C)[C@@H](O)[C@]1(C)O [azithromycin, reference compound] the molecule record lists ED50 as 46.9 mg/kg

Per the records, this molecule ( COC1C(O)CC(=O)OC(C)C/C=C/C=C/C(OC2CCC(N(C)C)C(C)O2)C(C)CC(CC=O)C1OC1OC(C)C(OC2CC(C)(O)C(OC(=O)CC(C)C)C(C)O2)C(N(C)C)C1O (centres unmarked) ) has ED50 equal to 26.1 mg/kg

// field: ED50; key: COC1C(OC(C)=O)CC(=O)OC(C)C/C=C/C=C/C(OC2CCC(N(C)C)C(C)O2)C(C)CC(CC=O)C1OC1OC(C)C(OC2CC(C)(O)C(OC(=O)CC(C)C)C(C)O2)C(N(C)C)C1O (centres unmarked) ; value = 24.6 mg/kg
